Sourced from patent US20170101476A1

Collected [35S]GTPγS accumulation IC50, GRO-α values appear next to each entry.
Target: T1, Human CXCR2 (human, UniProt P25025 1-360)
T1 sequence: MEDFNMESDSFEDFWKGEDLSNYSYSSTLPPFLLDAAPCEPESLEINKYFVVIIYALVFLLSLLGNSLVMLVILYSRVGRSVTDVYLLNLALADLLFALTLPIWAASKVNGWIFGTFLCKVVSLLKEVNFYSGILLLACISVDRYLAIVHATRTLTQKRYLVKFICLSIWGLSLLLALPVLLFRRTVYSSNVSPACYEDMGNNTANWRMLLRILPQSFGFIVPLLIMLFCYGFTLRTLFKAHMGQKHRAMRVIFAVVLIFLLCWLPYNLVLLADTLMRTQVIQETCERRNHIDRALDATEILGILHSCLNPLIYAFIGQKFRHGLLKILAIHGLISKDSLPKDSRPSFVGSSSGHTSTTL
Assay: cell-based or functional assay
ATTRIBUTE_MEASURED: [35S]GTPγS accumulation IC50, GRO-α (nM)

{"BINDER": "CXCR20021 (bispecific antibody, not shown: small tags and cut ends) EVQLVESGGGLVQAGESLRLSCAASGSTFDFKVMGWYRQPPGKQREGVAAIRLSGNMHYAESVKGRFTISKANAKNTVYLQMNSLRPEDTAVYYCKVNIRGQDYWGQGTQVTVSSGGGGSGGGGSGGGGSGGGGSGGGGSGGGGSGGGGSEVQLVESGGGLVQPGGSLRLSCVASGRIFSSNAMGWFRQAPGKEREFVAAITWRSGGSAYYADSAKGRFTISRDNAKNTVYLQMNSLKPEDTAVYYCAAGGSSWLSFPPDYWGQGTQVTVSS", "ATTRIBUTE_MEASURED": "[35S]GTPγS accumulation IC50, GRO-α", "RECORDED_VALUE": 0.551}
{"BINDER": "CXCR20033 (bispecific antibody, not shown: small tags and cut ends) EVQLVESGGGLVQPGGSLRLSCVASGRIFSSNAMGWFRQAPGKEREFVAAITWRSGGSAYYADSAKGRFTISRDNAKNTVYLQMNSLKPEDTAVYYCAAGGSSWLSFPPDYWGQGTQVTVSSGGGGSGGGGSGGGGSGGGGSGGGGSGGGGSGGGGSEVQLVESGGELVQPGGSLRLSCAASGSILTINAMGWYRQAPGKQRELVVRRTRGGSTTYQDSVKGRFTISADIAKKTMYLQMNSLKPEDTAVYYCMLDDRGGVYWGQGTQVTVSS", "ATTRIBUTE_MEASURED": "[35S]GTPγS accumulation IC50, GRO-α", "RECORDED_VALUE": 1.01}
{"BINDER": "CXCR20014 (bispecific antibody, not shown: small tags and cut ends) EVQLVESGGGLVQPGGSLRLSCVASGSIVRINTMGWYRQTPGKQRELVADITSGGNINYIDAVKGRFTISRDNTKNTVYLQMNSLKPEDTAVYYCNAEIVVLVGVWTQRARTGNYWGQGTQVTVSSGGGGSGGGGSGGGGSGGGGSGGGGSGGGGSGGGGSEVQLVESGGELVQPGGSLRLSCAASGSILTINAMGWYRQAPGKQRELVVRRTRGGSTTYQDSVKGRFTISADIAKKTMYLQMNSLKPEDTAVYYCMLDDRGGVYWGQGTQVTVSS", "ATTRIBUTE_MEASURED": "[35S]GTPγS accumulation IC50, GRO-α", "RECORDED_VALUE": 1.38}
{"BINDER": "CXCR20025 (bispecific antibody, not shown: small tags and cut ends) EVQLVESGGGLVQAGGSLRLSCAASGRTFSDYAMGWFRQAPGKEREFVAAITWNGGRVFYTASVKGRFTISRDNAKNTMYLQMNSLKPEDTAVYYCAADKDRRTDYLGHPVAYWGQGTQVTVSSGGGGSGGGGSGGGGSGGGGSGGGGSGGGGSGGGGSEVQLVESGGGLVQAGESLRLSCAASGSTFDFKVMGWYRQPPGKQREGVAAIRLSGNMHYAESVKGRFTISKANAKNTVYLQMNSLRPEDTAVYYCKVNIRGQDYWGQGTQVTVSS", "ATTRIBUTE_MEASURED": "[35S]GTPγS accumulation IC50, GRO-α", "RECORDED_VALUE": 0.891}
{"BINDER": "CXCR20028 (other, not shown: small tags and cut ends) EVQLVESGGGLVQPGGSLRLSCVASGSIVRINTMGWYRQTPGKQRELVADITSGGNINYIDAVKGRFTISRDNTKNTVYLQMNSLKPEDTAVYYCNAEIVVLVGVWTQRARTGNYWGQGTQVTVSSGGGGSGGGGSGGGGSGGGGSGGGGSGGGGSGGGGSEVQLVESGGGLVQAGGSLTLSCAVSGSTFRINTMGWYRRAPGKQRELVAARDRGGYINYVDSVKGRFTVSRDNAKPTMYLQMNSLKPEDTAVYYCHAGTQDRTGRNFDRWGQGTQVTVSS", "ATTRIBUTE_MEASURED": "[35S]GTPγS accumulation IC50, GRO-α", "RECORDED_VALUE": 1.38}
